Target: Replicase polyprotein 1ab (Severe acute respiratory syndrome coronavirus 2) (UniProt P0DTD1)
Test: Inhibition of SARS-CoV-2 main protease at 50 uM using Dabcy1-KTSAVLQSGFRKM-E-Edans-NH2 as substrate incubated for 10 mins followed by substrate addition by FRET assay relative to control
inhibition values by entry

[
  {
    "Structure notation": "Cc1ccc(-n2nc(C)c3c(C)cc(OCc4ccc5nonc5c4)nc32)cc1",
    "Unit string": "%",
    "inhibition": 5.26
  },
  {
    "Structure notation": "CC1=NN(c2ccc3ccccc3c2)C(=O)/C1=C1/C(=O)Nc2ccc(Cl)cc21",
    "Unit string": "%",
    "inhibition": 16.6
  },
  {
    "Structure notation": "Cc1cccc2cc(-c3c4cn[nH]c4nc4c3oc3c(O)c(O)ccc34)c(=O)[nH]c12",
    "Unit string": "%",
    "inhibition": 76.6
  },
  {
    "Structure notation": "O=C(CN1C(=O)c2ccccc2N2C(=O)c3ccccc3[C@H]12)Nc1cccc(O)c1",
    "Unit string": "%",
    "inhibition": 5.21
  },
  {
    "Structure notation": "O=C(NCc1ccc2c(c1)OCO2)c1ccc2nc3[nH]c4ccccc4c3nc2c1",
    "Unit string": "%",
    "inhibition": 35.6
  },
  {
    "Structure notation": "O=C(c1cc2nccc(-c3ccc4ccccc4c3)n2n1)N1CCN2CCC[C@H]2C1",
    "Unit string": "%",
    "inhibition": 9.38
  },
  {
    "Structure notation": "Cn1c2ccccc2c(=O)c2c1nc(Cc1ccccc1)n1c3ccccc3nc21",
    "Unit string": "%",
    "inhibition": 7.42
  },
  {
    "Structure notation": "Cn1c2ccccc2c2cc([C@@H]3N[C@H](C(=O)O)Cc4c3[nH]c3ccccc43)ccc21",
    "Unit string": "%",
    "inhibition": 6.54
  },
  {
    "Structure notation": "O=C(c1ccc2ccccc2n1)N1CCc2c(nc(-c3ccccc3)[nH]c2=O)C1",
    "Unit string": "%",
    "inhibition": 1.16
  }
]

----------
Molecular target: Replicase polyprotein 1ab (Severe acute respiratory syndrome coronavirus 2) (UniProt P0DTD1)
Experiment: Inhibition of SARS-CoV-2 main protease at 50 uM using Dabcy1-KTSAVLQSGFRKM-E-Edans-NH2 as substrate incubated for 10 mins followed by substrate addition by FRET assay relative to control
inhibition overview

[
  {
    "Structure notation": "Cc1cc(C)nc(-n2nc(C)c3c2NC(=O)C[C@@H]3c2ccc3ccccc3c2)n1",
    "inhibition [%]": 7.54
  },
  {
    "Structure notation": "Cc1ccc2c(c1)NC1(CCN(C(=O)Cc3ccc(F)cc3)CC1)c1cccn1-2",
    "inhibition [%]": 6.29
  },
  {
    "Structure notation": "O=c1oc2ccccc2c(O)c1[C@H]1c2ncccc2-c2c1c(=O)oc1ccccc21",
    "inhibition [%]": 8.23
  },
  {
    "Structure notation": "CC(=O)N1N=C(c2cc(-c3ccccc3)nc3ccccc23)O[C@H]1c1ccccc1",
    "inhibition [%]": 14.3
  },
  {
    "Structure notation": "Fc1ccc([C@H]2Oc3ccccc3[C@H]3CC(c4ccc5c(c4)OCO5)=NN32)cc1",
    "inhibition [%]": 6.87
  },
  {
    "Structure notation": "O=C1C[C@H](c2ccc(Cl)cc2)N2N=C(N3C(=O)[C@H]4CCCC[C@H]4C3=O)NC2=N1",
    "inhibition [%]": 8.84
  },
  {
    "Structure notation": "Cc1cccc(Nc2nc(C(=O)N3CCc4ccccc43)nc3ccccc23)c1",
    "inhibition [%]": 45.7
  },
  {
    "Structure notation": "Cc1cccc2[nH]c([C@H]3CCCN(C(=O)c4nc5ccccn5c4F)C3)nc12",
    "inhibition [%]": 11.1
  }
]
